# System Name: UniProtKB P21554
# Protocol Summary: bioSensAll ebBRET signaling profiling, hCB1
# Format: cell-based
# Design: host or cells: HEK293SL cells, transient PEI transfection
# Test Context: Log [Compound] (M) -7.14267; single replicate values, FigS6a
Define the label as satisfied when GoB hCB1 is strictly less than -2 and as not satisfied in all remaining cases.

COc1cccc(C(NC(=O)c2cc(C)n(-c3cccc(C(F)(F)F)c3)n2)c2ccco2)c1 (centres unmarked) [‘1087] | not satisfied
Cc1cc(C(=O)N(C)C(c2ccccc2)c2ccco2)nn1-c1cccc(C(F)(F)F)c1 (centres unmarked) [‘1082] | not satisfied
Cc1cc(C(=O)N(C)C(c2ccco2)c2ccco2)nn1-c1cccc(C(F)(F)F)c1 [‘4388] | satisfied
Cn1nc(-c2nnc(C(C)(C)Oc3ccc(Cl)cc3)o2)c2ccccc2c1=O [‘0450] | satisfied

For this molecule, is GoB hCB1 lower than -2? Cc1nc(CC2CC2)oc1-c1nc(Cc2cc3c(cc2Br)OCO3)no1 [‘7019]
satisfied

###

# Protocol Summary: Pharmacokinetics: plasma, brain, CSF
# Test Context: male, CD-1, mouse, CSF, intraperitoneal, 0.2 mg/kg
Outcome Measure: concentration at 480 min

Cc1cc(C(=O)NC(C)(c2ccco2)c2ccco2)nn1-c1cccc(C(F)(F)F)c1 [‘4936] | 0 ng/mL

Next, consider the following compound.
Return value of concentration at 480 min for input COC(=O)[C@@](C)(NC(=O)c1cc(C)n(-c2cccc(C(F)(F)F)c2)n1)c1cccs1 [‘1350] , no commentary.
0.14 ng/mL

###

# Protocol Summary: physchem
# Test Context: phosphate-buffered saline, 25 °C, pH 7.4, aqueous buffer, kinetic from dmso stock
Outcome Measure: solubility at 2 h (µM)
Give the number; µM is assumed, so skip it.

Give the value of solubility at 2 h reported for the following: COC(=O)[C@@](C)(NC(=O)c1cc(C)n(-c2cccc(C(F)(F)F)c2)n1)c1cccs1
23

###

# System Name: hCB1 (Homo sapiens, UniProt P21554)
# Sequence (P21554 whole entry): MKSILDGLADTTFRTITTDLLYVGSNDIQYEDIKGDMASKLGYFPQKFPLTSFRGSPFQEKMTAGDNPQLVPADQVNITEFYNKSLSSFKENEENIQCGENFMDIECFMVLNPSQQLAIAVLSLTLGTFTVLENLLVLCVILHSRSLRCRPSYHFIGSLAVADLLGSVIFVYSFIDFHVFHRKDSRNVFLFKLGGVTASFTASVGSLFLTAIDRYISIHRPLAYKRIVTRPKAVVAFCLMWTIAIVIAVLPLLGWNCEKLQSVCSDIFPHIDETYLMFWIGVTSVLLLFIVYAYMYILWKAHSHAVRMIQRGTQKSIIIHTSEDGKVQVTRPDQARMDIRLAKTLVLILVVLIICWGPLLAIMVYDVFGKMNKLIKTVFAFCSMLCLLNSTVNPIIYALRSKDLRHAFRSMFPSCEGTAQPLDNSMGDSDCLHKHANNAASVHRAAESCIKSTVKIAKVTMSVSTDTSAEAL
# Protocol Summary: bioSensAll ebBRET signaling profiling, hCB1
# Format: cell-based
# Set-up: host or cells: HEK293SL cells, transient PEI transfection
# Test Context: Gi1 biosensor; Log [Compound] (M) -8
Outcome Measure: Gi1 hCB1 response
Give your answer as a number; write no unit.

Cc1cc(C(=O)NC(c2ccccc2)c2ccco2)nn1-c1cccc(C#N)c1 (centres unmarked) | 11.2688
COC(=O)C(NC(=O)c1cc(C)n(-c2cccc(C(F)(F)F)c2)n1)c1cccs1 (centres unmarked) | 57.3074
Cc1cc(C(=O)NC(c2ccco2)c2ccco2)nn1-c1cccc(C(F)(F)F)c1 | 6.211
Cc1cc(C(=O)NC(c2ccccc2)c2ccco2)nn1-c1cccc(C(F)(F)F)c1 (centres unmarked) | -0.3248
COC(=O)[C@@H]1[C@@H]2CC[C@@H]2CN1C(=O)c1cc(C)n(-c2cccc(C(F)(F)F)c2)n1 | -1.914

Note down Gi1 hCB1 response recorded for Cc1cc(C(=O)N(C)C(c2ccccc2)c2ccco2)nn1-c1cccc(C(F)(F)F)c1 (centres unmarked)
-25.6382

Given COC(=O)C(NC(=O)c1cc(C)n(-c2cccc(F)c2)n1)c1cccs1 (centres unmarked) , respond with its Gi1 hCB1 response.
9.7692

Specify measured Gi1 hCB1 response for COC(=O)[C@@H]1[C@@H]2CCC[C@@H]2CN1C(=O)c1cc(C)n(-c2cccc(C(F)(F)F)c2)n1 .
16.8865

Consider the compound Cc1cc(C(=O)N(C)C(c2ccco2)c2ccco2)nn1-c1cccc(C(F)(F)F)c1 . State its measured Gi1 hCB1 response.
5.7853

Indicate the recorded Gi1 hCB1 response value for this compound: COC(=O)[C@@H]1[C@@H]2CCC[C@@H]2CN1C(=O)c1cc(C)n(-c2cccc(Cl)c2)n1 (racemic)
10.9106
